Entries and their IC50 values follow.
Molecular target: CREBBP (1084-1701) (Homo sapiens, UniProt Q92793)
Construct: measured in the following biochemical assay using CREBBP (1084-1701); purchased
Sequence (Q92793 1084-1701): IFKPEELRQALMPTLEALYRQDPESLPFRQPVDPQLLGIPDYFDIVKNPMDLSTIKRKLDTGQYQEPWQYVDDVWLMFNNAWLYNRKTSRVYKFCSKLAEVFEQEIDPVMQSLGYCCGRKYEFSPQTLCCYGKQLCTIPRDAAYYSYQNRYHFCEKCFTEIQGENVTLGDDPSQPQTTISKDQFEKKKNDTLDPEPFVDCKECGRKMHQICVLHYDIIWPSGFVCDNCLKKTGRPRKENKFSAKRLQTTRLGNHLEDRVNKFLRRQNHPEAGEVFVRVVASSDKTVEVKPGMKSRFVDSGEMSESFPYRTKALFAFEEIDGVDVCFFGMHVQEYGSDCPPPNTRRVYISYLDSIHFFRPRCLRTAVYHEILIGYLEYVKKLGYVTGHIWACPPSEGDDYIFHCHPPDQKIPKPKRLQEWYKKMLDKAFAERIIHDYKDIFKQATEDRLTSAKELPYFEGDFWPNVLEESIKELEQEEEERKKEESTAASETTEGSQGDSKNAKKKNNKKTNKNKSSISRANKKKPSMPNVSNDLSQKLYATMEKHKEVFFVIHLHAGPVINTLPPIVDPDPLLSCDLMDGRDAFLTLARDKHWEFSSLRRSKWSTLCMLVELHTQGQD
Assay: Biochemical assay for CREBBP (1084-1701), SAMDI
Conditions: SAMDI, read-out: CREBBP Biochemistry IC50
# output: bare number, implied unit µM

See these solved cases before continuing.
CCc1nn(C)c(CN(C)C(=O)c2cc(-c3ccc(NCCNC)c(C)n3)nc3ccc(Cl)cc23)c1C 19.4
CCn1ncc(CN(C)C(=O)c2cc(-c3cnn(C)c3)nc3ccc(Cl)cc23)c1C 26
CCn1ncc(CN(C)C(=O)c2cc(-c3ccccc3Cl)nc3c(C)cc(Cl)cc23)c1C 0.63
CCc1nc(-c2cc(C(=O)N(C)Cc3onc(CC)c3C)c3cc(COC)ccc3n2)ccc1NCCN(C)C 0.0539
CCn1ncc(CN(C)C(=O)c2cc(-c3cc(NC4CNC4)cc(C)n3)nc3ccc(Cl)cc23)c1C 0.0238

Give its IC50 value. Item: CCn1ncc(CN(C)C(=O)c2nc(-c3ccccc3Cl)nc3ccc(C#N)cc23)c1C
48

Give the measured IC50 of CCn1ncc(CN(C)C(=O)c2nc(-c3cnc4c[nH]nc4c3)nc3ccc(Cl)cc23)c1C .
3.31

So what's the measured IC50 for this one? CCn1ncc(CN(C)C(=O)c2nc(-c3ccc(CN4CCNCC4)c(OC)c3)nc3ccc(Cl)cc23)c1C
6.8

Find the recorded IC50 belonging to CCn1ncc(CN(C)C(=O)c2nc(-c3cc(CNC)ccc3C)nc3ccc(Cl)cc23)c1C and report it.
3.4

Endpoint output: IC50 of CCn1ncc(CN(C)C(=O)c2cc(-c3ccc(NC4CN(CC(F)(F)F)C4)c(C)n3)nc3ccc(Cl)cc23)c1C . Value?
0.0487

// lookup IC50 for CCn1ncc(CN(C)C(=O)c2cc(-c3ccc(N(C)CCNC)c(C)n3)nc3ccc(Cl)cc23)c1C
22

Can you look up the measured IC50 of CCc1onc(CN(C)C(=O)c2nc(-c3ccccc3Cl)nc3ccc(Cl)cc23)c1C for me?
76

Which IC50 reading was recorded for the compound CCn1ncc(CN(C)C(=O)c2cc(-c3cc4[nH]cnc4cn3)nc3ccc(Cl)cc23)c1C ?
0.029

Any idea what IC50 was measured for CCn1ncc(CN(C)C(=O)c2cc(-c3ccc(NCCNC)c(C)n3)nc3ccc(Cl)cc23)c1C1CC1 ?
0.0525

I have this compound here, CCn1ncc(CN(C)C(=O)c2cc(-c3ncccn3)nc3ccc(Cl)cc23)c1C , and I need its recorded IC50.
25
